Tested on: UACC-257 melanoma
Test: NCI tumour cell line growth inhibition, 48 h
Readout: TGI

Cc1ccc(S(=O)(=O)O/N=C2\CCC\C2=C/c2ccccc2)cc1    31.4 µM
CC1(C)CC(=O)C(Cc2ccccc2)(Cc2ccccc2)C(=O)C1    > 100 µM
CC[C@H]1C[C@@H](O)[C@@H]2[C@H](O)[C@H](O)CN2C1    > 100 µM

// below: TGI requested for another compound
INPUT: I am curious: what TGI value has been reported for Cc1c(NC(=O)c2cc(C(N)=O)nc3cc(F)ccc23)c(C(F)(F)F)nn1Cc1ccc(C#N)cc1 ?
OUTPUT: > 100 µM
